experiment: Concentration tested in vitro to inhibit PAF-induced maximum aggregation (PAF-Antagonistic activity) by 50%.
OUTCOME MEASURE: IC50 (µM)

As a guide, the following entries are already answered.
[
  {
    "MOLECULE": "N#CC(c1cccc(Cl)c1)N1CCN(C(=O)CC(c2ccccc2)c2ccccc2)CC1 (stereo not given)",
    "IC50 [µM]": 21
  },
  {
    "MOLECULE": "CC(C)(C)C(=O)N1CCN(C(C#N)c2cccnc2)CC1 (stereo not given)",
    "IC50 [µM]": 5.2
  }
]

a: N#CC(c1cccc(C(F)(F)F)c1)N1CCN(C(=O)CC(c2ccccc2)c2ccccc2)CC1 (stereo not given)
b: N#CC(c1cccnc1)N1CCN(C(=O)CNCC(c2ccccc2)c2ccccc2)CC1 (stereo not given)
c: CCCCCCCC(=O)N1CCN(C(C#N)c2cccnc2)CC1 (stereo not given)
Q. Order these by IC50, descending, and give the full ranking. Use the labels to give the ranking in the order requested.
A. a, c, b

----------
assay: Concentration tested in vitro to inhibit PAF-induced maximum aggregation (PAF-Antagonistic activity) by 50%.
OUTCOME MEASURE: IC50 (nM)

[
  {
    "MOLECULE": "O=C(C(c1ccccc1)c1ccccc1)N1CCN(Cc2cccnc2)CC1",
    "OUTCOME MEASURE": "IC50",
    "ENDPOINT RESULT": 2600
  }
]

P: N#CC(c1cccnc1)N1CCN(C(=O)CNc2cccc3ccccc23)CC1 (stereo not drawn)
Q: CC(c1ccccc1)N(C)CC(=O)N1CCN(C(C#N)c2cccnc2)CC1 (stereo not drawn)
Q. Quick one: lower IC50, P or Q ? Indicate which entry you chose by stating its label.
A. Q
(Q: 240 nM, P: 2600 nM)

----------
test: Concentration tested in vitro to inhibit PAF-induced maximum aggregation (PAF-Antagonistic activity) by 50%.
OUTCOME MEASURE: IC50 (nM)

P: N#CC1(Nc2cccnc2)CCN(C(=O)CC(c2ccccc2)c2ccccc2)CC1
Q: COc1cc(CCC(=O)N2CCN(C(C#N)c3cccnc3)CC2)cc(OC)c1OC (centres undefined)
R: CN(CC(=O)N1CCN(C(C#N)c2cccnc2)CC1)C(c1ccccc1)c1ccccc1 (centres undefined)
Q. Order the 3 listed items from lowest to highest according to IC50. Use the labels to give the ranking in the order requested.
A. P, R, Q
(P: 15 nM, R: 60 nM, Q: 400 nM)

----------
assay: Concentration tested in vitro to inhibit PAF-induced maximum aggregation (PAF-Antagonistic activity) by 50%.
OUTCOME MEASURE: IC50 (nM)

[
  {
    "MOLECULE": "COc1cc(CC(=O)N2CCN(C(C#N)c3cccnc3)CC2)cc(OC)c1OC (stereo not given)",
    "ENDPOINT RESULT": 460
  },
  {
    "MOLECULE": "N#CC(c1cccnc1)N1CCN(C(=O)Cc2cccc3ccccc23)CC1 (stereo not given)",
    "ENDPOINT RESULT": 76
  }
]

1: N#CC(c1cncs1)N1CCN(C(=O)CC(c2ccccc2)c2ccccc2)CC1 (stereo not given)
2: N#CC(c1cccnc1)N1CCC(OC(=O)CC(c2ccccc2)c2ccccc2)CC1 (stereo not given)
Q. Lab notebook, comparison: 1 versus 2 , higher IC50 goes to which? Indicate which entry you chose by stating its label.
A. 2

Values were extracted from BindingDB's records for doi:10.1021/jm00100a018.
